tested on: SKBR3-P; experiment: area under growth-rate inhibition curve (AUC GRI) (dimensionless (GR-based AUC)); higher = less growth inhibition; details: exposure time: 72 h; concentrations: 0.1, 1, 10 uM
Below: a set of entries, each annotated with reported area under growth-rate inhibition curve.
Could you respond with only the numeric value?

Use these answered entries as a reference point.
{"Compound": "Cc1cccc(C(C)c2c[nH]cn2)c1C.Cl (stereo unspecified) [Medetomidine HCl]", "Subject of test": "SKBR3-P", "Measure": "area under growth-rate inhibition curve", "Value reported": 1.03}
{"Compound": "NC(N)=Nc1nc(CSCCC(N)=NS(N)(=O)=O)cs1", "Subject of test": "SKBR3-P", "Measure": "area under growth-rate inhibition curve", "Value reported": 1.03}

Name the reported area under growth-rate inhibition curve value associated with the compound O=C(OC1C[N+]2(CCCOc3ccccc3)CCC1CC2)C(O)(c1cccs1)c1cccs1.[Br-] (stereo unspecified) [Aclidinium Bromide]
0.988

Name the reported area under growth-rate inhibition curve value associated with the compound CC1(C)O[C@@H]2[C@@H](CO[C@@]3(COS(N)(=O)=O)OC(C)(C)O[C@@H]23)O1 [Topiramate]
1.02

Name the reported area under growth-rate inhibition curve value associated with the compound COc1cc2nc(N(C)CCCNC(=O)C3CCCO3)nc(N)c2cc1OC.[Cl-].[H+] (stereo unspecified) [Alfuzosin HCl]
1.01

Name the reported area under growth-rate inhibition curve value associated with the compound C[C@]12N[C@H](Cc3ccccc31)c1ccccc12
0.998

Name the reported area under growth-rate inhibition curve value associated with the compound CCC1(c2c[nH]cn2)Cc2ccccc2C1 [Atipamezole]
1.01

Name the reported area under growth-rate inhibition curve value associated with the compound CC(=O)O[C@]1(C(C)=O)CC[C@H]2[C@@H]3C[C@H](C)C4=CC(=O)CC[C@]4(C)[C@H]3CC[C@@]21C [Medroxyprogesterone acetate]
0.953

Name the reported area under growth-rate inhibition curve value associated with the compound CCc1cc(C(C)=NOCc2ccc(C3CCCCC3)c(C(F)(F)F)c2)ccc1CN1CC(C(=O)O)C1 [BAF312 (Siponimod)]
0.99

Name the reported area under growth-rate inhibition curve value associated with the compound Cc1ccc(O)c([C@H](CCN(C(C)C)C(C)C)c2ccccc2)c1.O=C(O)[C@H](O)[C@@H](O)C(=O)O [Tolterodine tartrate]
0.972

Name the reported area under growth-rate inhibition curve value associated with the compound CCC(=O)O[C@@]1(C(=O)SCF)[C@H](C)CC2C3CC(F)C4=CC(=O)C=C[C@]4(C)[C@]3(F)C(O)C[C@@]21C (stereo partly specified) [Fluticasone propionate]
0.915

Name the reported area under growth-rate inhibition curve value associated with the compound CC(C)(C(=O)O)c1ccc(C(O)CCCN2CCC(C(O)(c3ccccc3)c3ccccc3)CC2)cc1.[Cl-].[H+] (stereo unspecified) [Fexofenadine HCl]
1.03

Name the reported area under growth-rate inhibition curve value associated with the compound CC(C)(C)NC[C@@H](O)COc1nsnc1N1CCOCC1.O=C(O)/C=C\C(=O)O [Timolol Maleate]
1.02

Name the reported area under growth-rate inhibition curve value associated with the compound Cl.O=C1CC[C@@]2(O)[C@H]3Cc4ccc(O)c5c4[C@@]2(CCN3CC2CC2)[C@H]1O5 [Naltrexone HCl]
1.05

Name the reported area under growth-rate inhibition curve value associated with the compound C[C@]12CC[C@@H]3c4ccc(O)cc4CC[C@H]3[C@@H]1C[C@@H](O)[C@@H]2O
0.989

Name the reported area under growth-rate inhibition curve value associated with the compound N[C@@H](Cc1ccc(O)c(O)c1)C(=O)O
1.03

----------
tested on: SKBR3-P; assay: area under growth-rate inhibition curve (AUC GRI) (dimensionless (GR-based AUC)); higher = less growth inhibition; conditions: exposure time: 72 h; concentrations: 0.1, 1, 10 uM
Measure: area under growth-rate inhibition curve
Could you respond with only the numeric value?

{"Compound": "CC(C)C[C@@H]1NC(=O)[C@@H](C(C)C)NC(=O)[C@@H]2CCCN2C(=O)[C@@H](CC(=O)O)NC(=O)[C@@H](Cc2c[nH]c3ccccc23)NC1=O", "Subject of test": "SKBR3-P", "Value reported": 1.01}
{"Compound": "Cl.NC12CC3CC(CC(C3)C1)C2 [Amantadine HCl]", "Subject of test": "SKBR3-P", "Value reported": 1.05}
{"Compound": "O=c1[nH]c2ccccc2n1CCCN1CCC(n2c(=O)[nH]c3cc(Cl)ccc32)CC1", "Subject of test": "SKBR3-P", "Value reported": 0.962}

Now consider the entry below.
Name the reported area under growth-rate inhibition curve value associated with the compound C[C@H]1CNCCc2ccc(Cl)cc21.[Cl-].[H+] [Lorcaserin HCl]
1.03

----------
test system: SKBR3-P; test: area under growth-rate inhibition curve (AUC GRI) (dimensionless (GR-based AUC)); higher = less growth inhibition; conditions: exposure time: 72 h; concentrations: 0.1, 1, 10 uM
Below: a set of entries, each annotated with reported area under growth-rate inhibition curve.
Could you respond with only the numeric value?

Use these answered entries as a reference point.
{"Molecule": "CCNC1(C(N)=O)CCN(c2ncnc3c2nc(-c2ccccc2Cl)n3-c2ccc(Cl)cc2)CC1.[Cl-].[H+]", "Subject of test": "SKBR3-P", "Measure": "area under growth-rate inhibition curve", "Value reported": 1.01}
{"Molecule": "CC1CCN(CCC2CCCN2S(=O)(=O)c2cccc(O)c2)CC1.Cl (centres undefined)", "Subject of test": "SKBR3-P", "Measure": "area under growth-rate inhibition curve", "Value reported": 1}
{"Molecule": "CC12CCC(=O)C=C1C1CC1C1C2CCC2(C)C1C1CC1C21CCC(=O)O1 (centres undefined)", "Subject of test": "SKBR3-P", "Measure": "area under growth-rate inhibition curve", "Value reported": 1.03}

Name the reported area under growth-rate inhibition curve value associated with the molecule Cl.Clc1cccc(Cl)c1NC1=NCCN1 [Clonidine HCl]
1.04

Name the reported area under growth-rate inhibition curve value associated with the molecule CC(=O)[C@H]1CC[C@H]2[C@@H]3CC=C4C[C@@H](O)CC[C@]4(C)[C@H]3CC[C@]12C
0.999

Name the reported area under growth-rate inhibition curve value associated with the molecule CN1[C@@H]2CC[C@H]1CC(OC(=O)C1C=Nc3ccccc31)C2.[Cl-].[H+] (some centres undefined)
0.976

Name the reported area under growth-rate inhibition curve value associated with the molecule COc1ccc(CN(C(=O)C(N)Cc2c(C)cc(C(N)=O)cc2C)C(C)c2ncc(-c3ccccc3)[nH]2)cc1C(=O)O (centres undefined)
1.02

Name the reported area under growth-rate inhibition curve value associated with the molecule CN1CCN2c3ccccc3Cc3ccccc3C2C1.[Cl-].[H+] (centres undefined) [Mianserin HCl]
1.02

Name the reported area under growth-rate inhibition curve value associated with the molecule O=c1ncnc2[nH][nH]cc1-2
1.03

----------
system: SKBR3-P; experiment: area under growth-rate inhibition curve (AUC GRI) (dimensionless (GR-based AUC)); higher = less growth inhibition; settings: exposure time: 72 h; concentrations: 0.1, 1, 10 uM
Below: a set of entries, each annotated with reported area under growth-rate inhibition curve.
Could you respond with only the numeric value?

{"Molecule": "COc1ccc([C@@H]2CC(=O)c3c(O)cc(O)cc3O2)cc1O", "Subject of test": "SKBR3-P", "Value reported": 1.03}
{"Molecule": "CN(C)CC(c1ccc(O)cc1)C1(O)CCCCC1 (stereo not given)", "Subject of test": "SKBR3-P", "Value reported": 1}
{"Molecule": "CN1CCC(c2c[nH]c3ccc(O)cc23)CC1", "Subject of test": "SKBR3-P", "Value reported": 1.02}
{"Molecule": "CN(C)CCOC(c1ccc(Cl)cc1)c1ccccn1 (stereo not given)", "Subject of test": "SKBR3-P", "Value reported": 1.03}
{"Molecule": "OC[C@H](O)CN1CCN(c2ccccc2)CC1", "Subject of test": "SKBR3-P", "Value reported": 1.02}

Name the reported area under growth-rate inhibition curve value associated with the molecule Cc1cccc(C#Cc2ccccc2)n1
0.999

Name the reported area under growth-rate inhibition curve value associated with the molecule CCOC(=O)C1(c2ccccc2)CCN(C)CC1
1.02

Name the reported area under growth-rate inhibition curve value associated with the molecule Cc1ccc(C2OC(CO)C(O)C(O)C2O)cc1Cc1ccc(-c2ccc(F)cc2)s1 (stereo not given)
1.03

Name the reported area under growth-rate inhibition curve value associated with the molecule CCCN(CCC)CCc1cccc2c1CC(=O)N2
1.02

Name the reported area under growth-rate inhibition curve value associated with the molecule CCc1c(C)[nH]c2c1C(=O)C(CN1CCOCC1)CC2 (stereo not given)
1.03

----------
system: SKBR3-P; test: area under growth-rate inhibition curve (AUC GRI) (dimensionless (GR-based AUC)); higher = less growth inhibition; conditions: exposure time: 72 h; concentrations: 0.1, 1, 10 uM
Below: a set of entries, each annotated with reported area under growth-rate inhibition curve.
Could you respond with only the numeric value?

Use these answered entries as a reference point.
{"Compound": "Cc1ccc(OCC(O)C(C)NC(C)C)c2c1CCC2.[Cl-].[H+] (stereo not drawn)", "Value reported": 1.01}
{"Compound": "CC(c1cc2ccccc2s1)N(O)C(N)=O (stereo not drawn)", "Value reported": 1.04}

Name the reported area under growth-rate inhibition curve value associated with the compound C=CCN1CCC23c4c5ccc(O)c4OC2C(OCCOCCOCCOCCOCCOCCOCCOC)CCC3(O)C1C5 (stereo not drawn)
1.01

Name the reported area under growth-rate inhibition curve value associated with the compound Cc1[nH]c(=O)c(C#N)cc1-c1ccncc1
1.02

Name the reported area under growth-rate inhibition curve value associated with the compound C#C[C@]1(O)CC[C@H]2[C@@H]3CCC4=CC(=O)CC[C@@H]4[C@H]3C(=C)C[C@@]21CC
1

Name the reported area under growth-rate inhibition curve value associated with the compound Nc1cc(-c2ccncc2)c[nH]c1=O
1.03

Name the reported area under growth-rate inhibition curve value associated with the compound COc1ccccc1OCCNCC(O)COc1cccc2[nH]c3ccccc3c12 (stereo not drawn)
1

Name the reported area under growth-rate inhibition curve value associated with the compound CN1CCc2cccc3c2[C@H]1Cc1ccc(O)c(O)c1-3.[Cl-].[H+] [(R)-(-)-Apomorphine hydrochloride]
0.965

Name the reported area under growth-rate inhibition curve value associated with the compound CCCCC(=O)N(Cc1ccc(-c2ccccc2-c2nnn[nH]2)cc1)[C@H](C(=O)O)C(C)C
1.02

Name the reported area under growth-rate inhibition curve value associated with the compound OCCN1CCN(CCCN2c3ccccc3Sc3ccc(Cl)cc32)CC1
1.01

Name the reported area under growth-rate inhibition curve value associated with the compound CC(C)NCC(O)COc1ccc(CCOCC2CC2)cc1.[Cl-].[H+] (stereo not drawn) [Betaxolol]
0.996

Name the reported area under growth-rate inhibition curve value associated with the compound CC[N+](CC)(CC)CCOc1cccc(OCC[N+](CC)(CC)CC)c1OCC[N+](CC)(CC)CC.[I-].[I-].[I-] [Gallamine Triethiodide]
1

Name the reported area under growth-rate inhibition curve value associated with the compound COc1cc2c(cc1OC)CC(=O)N(CCCN(C)CC1Cc3cc(OC)c(OC)cc31)CC2.Cl (stereo not drawn) [Ivabradine HCl]
1.03

Name the reported area under growth-rate inhibition curve value associated with the compound OCCOCCN1CCN(C(c2ccccc2)c2ccc(Cl)cc2)CC1.[Cl-].[Cl-].[H+].[H+] (stereo not drawn) [Hydroxyzine 2HCl]
0.995

Name the reported area under growth-rate inhibition curve value associated with the compound CCCC(=O)Nc1ccc(OCC(O)CNC(C)C)c(C(C)=O)c1.[Cl-].[H+] (stereo not drawn) [Acebutolol HCl]
1.04

Name the reported area under growth-rate inhibition curve value associated with the compound CC(=O)Oc1cc2c(s1)CCN(C(C(=O)C1CC1)c1ccccc1F)C2 (stereo not drawn)
1.02

Name the reported area under growth-rate inhibition curve value associated with the compound CN1C2CC(O)CC1C1OC12 (stereo not drawn)
1.03

Name the reported area under growth-rate inhibition curve value associated with the compound CC(C[N+](C)(C)C)OC(N)=O.[Cl-] (stereo not drawn) [Bethanechol chloride]
1.03
